pKd, SH3GLB1 SH3 domain (aa 305-365) (Homo sapiens, UniProt Q9Y371), per-entry values.
pKd: −log10 of the molar value. Peptide text beside a SMILES is read from it.

Check out these entries, answers already filled in.
CC(C)C[C@H](NC(=O)[C@H](Cc1c[nH]cn1)NC(=O)[C@H](CC(C)C)NC(=O)[C@@H]1CCCN1C(=O)[C@H](CO)NC(=O)[C@H](CO)NC(=O)[C@@H](N)CO)C(=O)N[C@@H](CCC(N)=O)C(=O)N1CCC[C@H]1C(=O)N1CCC[C@H]1C(=O)N1CCC[C@H]1C(=O)N[C@@H](CC(C)C)C(=O)NCC(=O)N[C@@H](CCCCN)C(=O)N[C@@H](CCCCN)C(=O)O [Peptide P6] (H-SSSPLHLQPPPLGKK-OH; N-terminus and C-terminus assumed): < 3.70
CC[C@H](C)[C@H](N)C(=O)N[C@@H](C)C(=O)NCC(=O)N1CCC[C@H]1C(=O)N1CCC[C@H]1C(=O)N[C@H](C(=O)N1CCC[C@H]1C(=O)N1CCC[C@H]1C(=O)N[C@@H](CCCNC(=N)N)C(=O)N[C@@H](CCC(N)=O)C(=O)N[C@@H](CO)C(=O)O)C(C)C [Peptide P9] (H-IAGPPVPPRQS-OH): < 3.70

Okay, now this compound:
## Task Consider the compound CC(C)[C@H](N)C(=O)N1CCC[C@H]1C(=O)N[C@H](C(=O)N1CCC[C@H]1C(=O)N1CCC[C@H]1C(=O)N1CCC[C@H]1C(=O)N[C@H](C(=O)N1CCC[C@H]1C(=O)N1CCC[C@H]1C(=O)N[C@@H](CCCNC(=N)N)C(=O)N[C@@H](CCCNC(=N)N)C(=O)N[C@@H](CCCNC(=N)N)C(=O)O)C(C)C)C(C)C [RP1, reference compound] and give its measured pKd.
## Result < 3.70

---

system tested: ARHGAP12 SH3 domain (aa 12-74) (Homo sapiens)
Sequence (Q8IWW6 12-74): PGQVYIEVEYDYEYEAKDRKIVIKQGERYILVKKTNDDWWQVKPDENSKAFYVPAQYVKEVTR
pKd: −log10 of the molar value. Peptide text beside a SMILES is read from it.
reported metric: pKd

Check out these entries, answers already filled in.
CC(C)C[C@H](NC(=O)[C@H](Cc1c[nH]cn1)NC(=O)[C@H](CC(C)C)NC(=O)[C@@H]1CCCN1C(=O)[C@H](CO)NC(=O)[C@H](CO)NC(=O)[C@@H](N)CO)C(=O)N[C@@H](CCC(N)=O)C(=O)N1CCC[C@H]1C(=O)N1CCC[C@H]1C(=O)N1CCC[C@H]1C(=O)N[C@@H](CC(C)C)C(=O)NCC(=O)N[C@@H](CCCCN)C(=O)N[C@@H](CCCCN)C(=O)O [Peptide P6] (H-SSSPLHLQPPPLGKK-OH; N-terminus and C-terminus assumed): < 3.70
CC(C)C[C@H](NC(=O)[C@@H]1CCCN1C(=O)[C@@H](NC(=O)[C@H](CCCNC(=N)N)NC(=O)[C@@H]1CCCN1C(=O)[C@H](CO)NC(=O)[C@H](CC(N)=O)NC(=O)[C@@H]1CCCN1C(=O)[C@H](C)NC(=O)[C@@H](N)CO)[C@@H](C)O)C(=O)N[C@H](C(=O)N1CCC[C@H]1C(=O)N1CCC[C@H]1C(=O)N1CCC[C@H]1C(=O)N[C@@H](C)C(=O)N[C@@H](CO)C(=O)O)[C@@H](C)O [Peptide P1] (H-SAPNSPRTPLTPPPAS-OH): < 3.70

Okay, now this compound:
## Task Give ARHGAP12 SH3 domain (aa 12-74) (Homo sapiens) pKd for CC(C)C[C@H](NC(=O)[C@@H](NC(=O)[C@@H](N)C(C)C)[C@@H](C)O)C(=O)N1CCC[C@H]1C(=O)N[C@@H](Cc1c[nH]cn1)C(=O)NCC(=O)N1CCC[C@H]1C(=O)N[C@@H](CCCNC(=N)N)C(=O)N[C@@H](CO)C(=O)N[C@@H](C)C(=O)O [Peptide P2] (H-VTLPHGPRSA-OH)
## Result < 3.70
